# System: OVCAR-5
# method.summary: NCI tumour cell line growth inhibition, 48 h
The source made the active and inactive calls. Rule as the data show it: active = GI50 up to about 1.1 µM and inactive = higher.
Permitted responses: active, inactive

compound	class.assignment
CCN(CCCOc1ccccc1)CCN(CC)CCCOc1ccccc1	inactive

In: I'd appreciate the recorded outcome for CO/C(=N\N=C\c1cccc(Cl)c1)c1ccncc1 from this test.
Out: inactive

In: Assay result, entry C/C=C(\C)c1cc(O)c(C)c2c1Oc1cc(O)c(Cl)c(C)c1C(=O)O2 — outcome?
Out: inactive

In: Which outcome was assigned to CC[C@](C)(O)C(=O)O[C@H]1C(=O)O[C@@H]2C[C@H]3C(C)=CC(=O)[C@@H](O)[C@]3(C)[C@H]3[C@@]4(O)OC[C@]32[C@@H]1[C@@H](C)[C@H]4O in this test?
Out: active
